Tested on: HeLa cells
Assay: Clonogenic assay (cloning inhibition, colony counting after crystal violet staining)
Format: cell-based
Conditions: 10 days incubation, mesylate
Counter-ions that a name gives are not always drawn.
Measurement Name: pIC50
pIC50 (log units): -log10 of the concentration in mol/L.

Which measured pIC50 belongs to CCOC(=O)C1=C(C)N=c2sc(=Cc3ccc(O)cc3)c(=O)n2C1c1ccc2c(c1)OCO2 (stereo not shown) [(1a), mesylate] , tested on HeLa cells?
4.83

###

Target: MBP-CDC25B3 recombinant enzyme (Homo sapiens, UniProt P30305)
Sequence (P30305 whole entry): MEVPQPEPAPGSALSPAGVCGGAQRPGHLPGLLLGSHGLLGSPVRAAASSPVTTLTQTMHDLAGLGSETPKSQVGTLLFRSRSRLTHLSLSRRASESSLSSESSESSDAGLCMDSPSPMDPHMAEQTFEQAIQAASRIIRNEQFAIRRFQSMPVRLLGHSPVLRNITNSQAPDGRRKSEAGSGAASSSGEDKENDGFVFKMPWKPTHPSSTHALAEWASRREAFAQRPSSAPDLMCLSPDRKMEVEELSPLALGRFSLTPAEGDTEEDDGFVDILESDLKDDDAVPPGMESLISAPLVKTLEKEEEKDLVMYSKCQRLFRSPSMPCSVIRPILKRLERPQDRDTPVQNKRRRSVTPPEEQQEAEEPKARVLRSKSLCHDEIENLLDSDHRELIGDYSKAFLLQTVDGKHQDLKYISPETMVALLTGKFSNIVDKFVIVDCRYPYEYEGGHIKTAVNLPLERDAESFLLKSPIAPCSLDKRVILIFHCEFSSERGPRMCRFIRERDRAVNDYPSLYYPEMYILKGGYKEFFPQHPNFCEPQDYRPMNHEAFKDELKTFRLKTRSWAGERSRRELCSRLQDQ
Assay: In vitro enzymatic assay (fluorescein diphosphate as substrate)
Settings: recombinant fused MBP-CDC25B protein, fluorescein diphosphate 30 µM as substrate, concentration response up to 100 µM
pIC50: −log10 of the molar value. Counter-ions that a name gives are not always drawn.
Criterion: pIC50 meeting or surpassing 5. Met: label 1. Not met: label 0.

Recorded results for 3 compounds are shown here.
>>> group("CCOC(=O)C1=C(C)N=c2sc(=Cc3ccc(O)cc3)c(=O)n2C1c1ccc2c(c1)OCO2 (stereo not drawn) [(1a), mesylate]")
"label 1"
>>> group("CCOC(=O)C1=C(C)N=c2sc(=Cc3cc(Br)c(O)c(Br)c3)c(=O)n2C1c1ccc2c(c1)OCO2 (stereo not drawn) [Compound 12]")
"label 0"
>>> group("CCOC(=O)C1=C(C)N=c2sc(=Cc3ccc(OC(C)=O)c(OC(C)=O)c3)c(=O)n2C1c1ccc(OC)c(OC)c1 (stereo not drawn) [Compound (5b)]")
"label 1"

Now examine the next entry.
Given the entry CCOC(=O)C1=C(C)N=c2sc(=Cc3ccc(OC(C)=O)c(OC(C)=O)c3)c(=O)n2C1c1ccc2c(c1)OCO2 (stereo not drawn) [Compound (5a)] , answer whether its pIC50 meets or surpasses 5.
label 1

Values were extracted from patent EP2000140A1.
